Taken from patent US7262223B2.

- target.or.system: solubilized Aβ40 (Homo sapiens, UniProt P05067)
- Construct: 20 μM of solubilized Aβ40
- Sequence (P05067 672-711 limits assumed): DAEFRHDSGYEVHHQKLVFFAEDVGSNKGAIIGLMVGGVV
- measurement.notes: Mass spectroscopy (MS) assay of binding to soluble Aβ40
- Parameters: key: “+” = active; “−” = inactive
- cond: 200 μM test compound, 20 μM solubilized Aβ40, 20% ethanol, pH 7.4, electrospray ionization MS

{"columns": ["item.smiles", "MS Assay"],
 "data": [
  ["CCOC(=O)c1ccc(C(=O)NCCCCCCCNC(=O)c2ccc(C(=N)N)cc2)cc1", "+"],
  ["N=C(NCCCCCCCNC(=O)c1ccc(Br)cc1)c1ccc(Br)cc1", "+"],
  ["COc1ccc(C(=N)NCCN2CCN=C2c2ccc(OC)cc2)cc1", "+"],
  ["N=C(NCCCCCCCN)c1ccc(Br)cc1", "+"],
  ["N/C(=N\\O)c1ccc(OCCCCCCCCCNO)cc1", "−"],
  ["COc1ccc(C(=N)NCCCCCCCCCNC(=N)c2ccc(OC)cc2)cc1", "−"],
  ["CCOC(=O)c1ccc(C(=O)NCCCCCCCCCNC(=O)c2ccc(C(=N)N)cc2)cc1", "+"],
  ["COc1ccc(C(=N)NCCCCCNC(=N)c2ccc(OC)cc2)cc1", "+"],
  ["N=C(NCCCCCCCCCNC(=N)c1ccc(Br)cc1)c1ccc(Br)cc1", "+"],
  ["Nc1ccc(OCCCCCOc2ccc(NC3=NCCN3)cc2)cc1", "−"],
  ["N=C(N)c1ccc(C(=O)NCCN(CCNC(=O)c2ccc(C(=N)N)cc2)C(=O)c2ccc(C(=N)N)cc2)cc1", "−"],
  ["N=C(N)c1ccc(S(=O)(=O)NCCCCCCCCCNS(=O)(=O)c2ccc(C(=N)N)cc2)cc1", "−"],
  ["N=C(NCCCCCNC(=N)c1ccc(Br)cc1)c1ccc(Br)cc1", "+"]
]}
